The reported measurements were obtained from paper PMC7470779.

# assay overview: in vivo
# stated conditions: Sprague-Dawley, rat, iv, 30 mg/kg, AUC0-∞, rats, acyclovir 30 mg/kg iv, acyclovir alone
measured attribute: AUC(0-inf) (ng·h/mL)
Your answer is read as ng·h/mL, so omit the unit and give the number.

Just so you know, measured AUC(0-inf) for Nc1nc2c(ncn2COCCO)c(=O)[nH]1 [acyclovir] came out at 25800

---

# assay system: human OAT1 (Homo sapiens, UniProt Q4U2R8)
# assay overview: Inhibition of 6-CF uptake in hOAT1-HEK293 cells
measured attribute: IC50

Just so you know, measured IC50 for C/C(O)=C(\C#N)C(=O)Nc1ccc(C(F)(F)F)cc1 [TER, teriflunomide] came out at 3.39 µM
